Where do these numbers come from? They come from patent US20110237779A1.

- studyTarget: T1, human tissue factor (human, UniProt P13726 33-251, limits assumed)
- T1 construct: construct not described; also called TF
- methodDescription: phage ELISA, solution competition: Fab-phage incubated with serially diluted TF, unbound phage captured on TF-coated wells; IC50 used as affinity estimate
pIC50: −log10 of the molar value.
Collected pIC50 values appear next to each entry.

{"columns": ["binder", "pIC50"],
 "data": [
  ["D3 library clone, CDR-L3 LSDGSSPFT (Fab, V domains shown, Changes against the D3 direct graft (Kabat): VL Q90S, H91D, E93S; copies: 1 + 1) VH: EVQLVESGGGLVQPGGSLRLSCAASGFNIKDYYMHWVRQAPGKGLEWVGWIDPENGNTIYDPKFQDRFTISADTSKNTAYLQMNSLRAEDTAVYYCARDTAAYFDYWGQGTLVTVSS VL: DIQMTQSPSSLSASVGDRVTITCKASRDIKSYLSWYQQKPGKAPKLLIYYATSLADGVPSRFSGSGSGTDFTLTISSLQPEDFATYYCLSDGSSPFTFGQGTKVEIK", 7.82],
  ["D3 library clone, CDR-L3 LQDGESPFT (Fab, V domains shown, Change against the D3 direct graft (Kabat): VL H91D; Siblings 5; copies: 1 + 1) VH: EVQLVESGGGLVQPGGSLRLSCAASGFNIKDYYMHWVRQAPGKGLEWVGWIDPENGNTIYDPKFQDRFTISADTSKNTAYLQMNSLRAEDTAVYYCARDTAAYFDYWGQGTLVTVSS VL: DIQMTQSPSSLSASVGDRVTITCKASRDIKSYLSWYQQKPGKAPKLLIYYATSLADGVPSRFSGSGSGTDFTLTISSLQPEDFATYYCLQDGESPFTFGQGTKVEIK", 7.89],
  ["D3 library clone, CDR-L2 YVPWTAD (Fab, V domains shown, Changes against the D3 direct graft (Kabat): VL A51V, T52P, S53W, L54T; copies: 1 + 1) VH: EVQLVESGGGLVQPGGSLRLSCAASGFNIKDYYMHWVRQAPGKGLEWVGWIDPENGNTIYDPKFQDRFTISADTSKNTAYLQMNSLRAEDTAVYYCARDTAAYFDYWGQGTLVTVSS VL: DIQMTQSPSSLSASVGDRVTITCKASRDIKSYLSWYQQKPGKAPKLLIYYVPWTADGVPSRFSGSGSGTDFTLTISSLQPEDFATYYCLQHGESPFTFGQGTKVEIK", 8.00],
  ["D3 library clone, CDR-L3 LQDGESPFT, I58F, N82aI, D95N (Fab, V domains shown, Changes against the D3 direct graft (Kabat): VL H91D; VH I58F, N82aI, D95N; copies: 1 + 1) VH: EVQLVESGGGLVQPGGSLRLSCAASGFNIKDYYMHWVRQAPGKGLEWVGWIDPENGNTFYDPKFQDRFTISADTSKNTAYLQMISLRAEDTAVYYCARNTAAYFDYWGQGTLVTVSS VL: DIQMTQSPSSLSASVGDRVTITCKASRDIKSYLSWYQQKPGKAPKLLIYYATSLADGVPSRFSGSGSGTDFTLTISSLQPEDFATYYCLQDGESPFTFGQGTKVEIK", 8.10],
  ["D3 library clone, CDR-L2 YESGPAD (Fab, V domains shown, Changes against the D3 direct graft (Kabat): VL A51E, T52S, S53G, L54P; Siblings 2; copies: 1 + 1) VH: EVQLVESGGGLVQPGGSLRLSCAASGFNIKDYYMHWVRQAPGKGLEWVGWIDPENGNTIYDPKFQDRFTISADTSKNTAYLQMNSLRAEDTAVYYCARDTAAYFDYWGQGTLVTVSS VL: DIQMTQSPSSLSASVGDRVTITCKASRDIKSYLSWYQQKPGKAPKLLIYYESGPADGVPSRFSGSGSGTDFTLTISSLQPEDFATYYCLQHGESPFTFGQGTKVEIK", 8.10]
]}
